# TARGET_OR_TEST_SYSTEM: Tumour suppressor protein p53/Mdm4 (Homo sapiens, UniProt O15151)
# Sequence (P04637 whole entry): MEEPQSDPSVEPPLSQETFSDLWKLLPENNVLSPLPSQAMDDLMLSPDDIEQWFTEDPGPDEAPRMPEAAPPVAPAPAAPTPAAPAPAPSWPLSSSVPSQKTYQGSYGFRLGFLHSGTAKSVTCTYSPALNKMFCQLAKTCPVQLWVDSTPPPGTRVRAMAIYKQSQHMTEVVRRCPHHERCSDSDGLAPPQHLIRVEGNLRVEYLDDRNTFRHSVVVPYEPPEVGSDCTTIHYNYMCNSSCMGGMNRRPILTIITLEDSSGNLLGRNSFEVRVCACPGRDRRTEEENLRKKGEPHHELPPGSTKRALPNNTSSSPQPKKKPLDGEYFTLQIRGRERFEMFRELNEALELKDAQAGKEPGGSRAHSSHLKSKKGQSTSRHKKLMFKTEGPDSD
# Sequence (O15151 whole entry): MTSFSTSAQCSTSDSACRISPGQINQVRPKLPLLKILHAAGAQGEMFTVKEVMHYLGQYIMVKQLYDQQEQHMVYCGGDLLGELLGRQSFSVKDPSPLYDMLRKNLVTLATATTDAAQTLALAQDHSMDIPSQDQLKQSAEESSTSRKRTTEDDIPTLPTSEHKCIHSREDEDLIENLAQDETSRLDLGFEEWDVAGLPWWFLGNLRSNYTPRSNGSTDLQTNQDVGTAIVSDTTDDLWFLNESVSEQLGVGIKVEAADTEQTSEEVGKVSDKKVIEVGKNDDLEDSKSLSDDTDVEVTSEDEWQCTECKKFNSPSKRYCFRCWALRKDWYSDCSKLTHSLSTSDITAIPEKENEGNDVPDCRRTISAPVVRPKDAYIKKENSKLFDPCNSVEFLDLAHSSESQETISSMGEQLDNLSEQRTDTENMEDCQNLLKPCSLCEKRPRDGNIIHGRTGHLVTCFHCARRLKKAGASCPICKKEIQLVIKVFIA
READOUT_NAME: pKi
The value called pKi is obtained by taking minus log10 of the concentration in mol/L.

Lab note: need pKi with Tumour suppressor protein p53/Mdm4 (Homo sapiens, UniProt O15151) for entry `O=C1CN(C(=O)N2C(c3ccc4c(c3)C(=O)NCC(=O)N4c3ccccc3)=N[C@@H](c3ccc(Cl)cc3)[C@H]2c2ccc(Cl)cc2)CCN1` , please look it up.
7.97

---

# Tested on: U2OS
# EXPERIMENT_SUMMARY: Antiproliferative activity against human U2OS cells harboring p53 assessed inhibition of cell growth incubated for 4 days by celltiter-glo assay
# CONDITIONS_USED: 96 h
READOUT_NAME: pIC50
Worth noting: pIC50 values are minus log10 of concentrations stated in mol/L.

[[record]]
smiles_input = "CCN1[C@@H](CC(C)(C)C)[C@@]2(CNc3cc(Cl)ccc32)[C@@H](c2ccccc2F)[C@@H]1C(=O)Nc1ccc(C(=O)O)cc1OC"
measurement = 5.47

[[record]]
smiles_input = "CCN1[C@@H](CC(C)(C)C)[C@@]2(CNc3cc(Cl)ccc32)[C@@H](c2ccccc2Cl)[C@@H]1C(=O)Nc1ccc(C(=O)O)cc1OC"
measurement = 5.55


Give U2OS pIC50 for `CCN1[C@@H](CC(C)(C)C)[C@@]2(CNc3cc(Cl)ccc32)[C@@H](c2cccc(F)c2)[C@@H]1C(=O)Nc1ccc(C(=O)O)cc1OC`
6.52

Return pIC50 measured with U2OS given this molecule: `CCN1[C@@H](CC(C)(C)C)[C@@]2(CNc3ccc(Cl)cc32)[C@@H](c2cccc(Cl)c2Cl)[C@@H]1C(=O)Nc1ccc(C(=O)O)cc1OC`
5.73

# returns recorded pIC50 (system: U2OS) for `CCN1[C@@H](CC(C)(C)C)[C@@]2(CNc3cc(Cl)ccc32)[C@@H](c2cccc(C)c2)[C@@H]1C(=O)Nc1ccc(C(=O)O)cc1OC`
6.20

# get_value(readout= pIC50, system= U2OS) for `CCN1[C@@H](CC(C)(C)C)[C@@]2(CNc3cc(Cl)ccc32)[C@@H](c2cccc(Cl)c2Cl)[C@@H]1C(=O)Nc1ccc(C(=O)O)cc1OC`
6.19

---

# TARGET_OR_TEST_SYSTEM: Protein Mdm4 (Homo sapiens, UniProt O15151)
# Sequence (O15151 whole entry): as above
READOUT_NAME: Ki

Looking for the measured Ki of `CNC(=O)c1ccc(NC(=O)[C@@H]2N[C@@H](CC(C)(C)C)[C@@]3(CNc4cc(Cl)ccc43)[C@H]2c2cccc(Cl)c2F)c(OC)c1` , can you help?
> 27 nM

Origin of the recorded values: ChEMBL document CHEMBL5375985
